- Target System: T1, human CD112R on Jurkat CD112R effector cells (human, UniProt Q6DKI7 1-326)
- T1 sequence (looked up): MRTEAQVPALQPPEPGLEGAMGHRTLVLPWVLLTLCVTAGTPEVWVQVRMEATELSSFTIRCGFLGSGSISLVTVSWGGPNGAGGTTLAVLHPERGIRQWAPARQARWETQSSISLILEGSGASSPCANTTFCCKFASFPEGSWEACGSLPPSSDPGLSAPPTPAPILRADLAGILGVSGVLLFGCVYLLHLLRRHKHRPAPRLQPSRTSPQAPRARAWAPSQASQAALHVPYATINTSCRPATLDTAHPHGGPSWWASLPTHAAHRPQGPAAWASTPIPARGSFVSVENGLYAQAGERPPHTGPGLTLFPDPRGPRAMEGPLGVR
- Assay Method Text: cell-based or functional assay
// returns not satisfied unless EC50, CD112R/CD112 reporter is strictly below 0.04 µg/mL, in which case satisfied

Given Hu26 (antibody, IgG4, V domains shown, humanized IgG4) VH: EVQLVESGGGLVQPGGSLRLSCAASGFTFSSYHMSWVRQAPGKGLELVAAISRDGDSTYYPDTVKGRFTISRDNAKNSLYLQMNSLRAEDTAVYYCSRHEDYFGFAMDSWGQGTLVTVSS VL: AIQMTQSPSSLSASVGDRVTITCKASQSVTNDVAWYQQKPGKAPKLLIYYVSNHYTGVPSRFSGSGSGTDFTLTISSLQPEDFATYFCQQAYRSPWTFGQGTKLEIK , is recorded EC50, CD112R/CD112 reporter strictly lower than 0.04 µg/mL? satisfied

Continuing:
Field: below-cutoff. Rule: recorded EC50, CD112R/CD112 reporter strictly less than 0.04 µg/mL. Subject: Hu39 (antibody, IgG4, V domains shown) VH: EVQLVESGGGLVQPGGSLRLSCAASGFTFSSYHMSWVRQAPGKGLELVSAINSNVISTYYLDTVKGRFTISRDNAKNSLYLQMNSLRAEDTAVYYCARHEDYYGFAMDYWGQGTLVTVSS VL: EIVMTQSPPTLSLSPGERVTLSCKASQSVSNDVAWYQEKPGQAPRLLIYYVSHRFTGIPARFSGSGSGTDFTLTISSLQPEDFAVYYCHQAYRSPWTFGQGTKLEIK satisfied

API: query returns whether the binder falls strictly under 0.04 µg/mL in EC50, CD112R/CD112 reporter. Query: Hu18 (antibody, IgG4, V domains shown, humanized IgG4) VH: EVQLVESGGGLVKPGGSLRLSCAASGFTFSSYHMSWVRQAPGKGLELVSAISRDGDSTYYPDTVKGRFTISRDNAKNSLYLQMNSLRAEDTAVYYCSRHEDYFGFAMDSWGQGTLVTVSS VL: EIVMTQSPPTLSLSPGERVTLSCKASQSVSNDVAWYQQKPGQAPRLLIYYVSNRFTGIPARFSGSGSGTDFTLTISSLQPEDFAVYFCQQAYRSPWTFGQGTKLEIK satisfied

Strictly below 0.04 µg/mL: is that where EC50, CD112R/CD112 reporter of Hu46 (antibody, IgG4, V domains shown) VH: EVQLVESGGGLVKPGGSLRLSCAASGFTFSSYHMSWVRQAPGKGLELVSAINSNVISTYYLDTVKGRFTISRDNAKNSLYLQMNSLRAEDTAVYYCARHEDYYGFAMDYWGQGTLVTVSS VL: DIVMTQSPDSLAVSLGERATINCKASQSVSNDVAWYQQKPGQPPKLLIYYVSHRFTGVPDRFSGSGSGTDFTLTISSLQAEDVAVYFCHQAYRSPWTFGQGTKLEIK sits? satisfied

Answer whether the binder Hu12 (antibody, IgG4, V domains shown, humanized IgG4) VH: EVQLVESGGGLVKPGGSLRLSCAASGFTFSSYHMSWVRQAPGKGLELVSAINSNDINTYYLDTVKGRFTISRDIAKNSLYLQMNSLRAEDTAVYYCARHEDYYGFAMDYWGQGTLVTVSS VL: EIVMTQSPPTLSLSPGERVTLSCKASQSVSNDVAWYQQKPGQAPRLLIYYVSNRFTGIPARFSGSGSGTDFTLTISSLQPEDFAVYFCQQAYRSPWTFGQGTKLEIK has EC50, CD112R/CD112 reporter strictly less than 0.04 µg/mL not satisfied

Reference source: patent US20240309087A1
